# system_under_test: α-glucosidase (EC3.2.1.20)
# test_name: α-Glucosidase inhibition assay
# condition_context: mean ± SD; samples in 30% (v/v) ethanol-PBS
Items are presented alongside their recorded IC50.
endpoint_name: IC50 (mM)

• COc1cc(C(=O)O)ccc1O [Compound 8, vanillic acid] = 29.7
• O=C(O)c1cc(O)ccc1O [Compound 4, gentisic acid] = 30.5
• O=C(O)c1ccc(O)cc1 [Compound 7, 4-hydroxybenzoic acid] = 34.1
• COc1cc(C(=O)O)cc(OC)c1O [Compound 13, syringic acid] = 20.3
• COc1ccc(O)c(C(=O)O)c1 [Compound 2, 2-hydroxy-5-methoxybenzoic acid] = 26.1

###

# System: HepG2 cells
# test_name: Cellular antioxidant activity (CAA) assay
# Type: cell-based
# condition_context: Homo sapiens, HepG2, HepG2 cells, no PBS wash protocol
# Method: HepG2 cells (ATCC Co., Manassas, VA, USA) were incubated in DMEM with 1% penicillin-streptomycin and 10% FBS and maintained at 37 °C with 5% CO2. The modified methylene blue assay was used to determine cytotoxicity. The CAA assay was performed, according to Wolfe et al., with slight modification. In brief, 6 × 10^4 HepG2 cells were placed in each well of a black-walled 96-microwell plate. […] The fluorescence values were recorded every 5 min for 1 h. […]
Let's look at some compounds and their measured EC50.
endpoint_name: EC50 (µM)

* COc1cc(C(=O)O)ccc1O [Compound 8, vanillic acid] | 59.1
* O=c1c(O)c(-c2ccc(O)c(O)c2)oc2cc(O)cc(O)c12 [Quercetin, quercetin, reference compound] | 5.09

###

# system_under_test: α-amylase (EC3.2.1.1)
# test_name: α-Amylase inhibition assay
# condition_context: mean ± SD; samples in 30% (v/v) ethanol-PBS
pIC50: −log10 of the molar value.
endpoint_name: pIC50

• O=C(O)c1cc(O)ccc1O [Compound 4, gentisic acid] = 1.44
• COc1ccc(O)c(C(=O)O)c1 [Compound 2, 2-hydroxy-5-methoxybenzoic acid] = 1.39

###

# system_under_test: α-amylase (EC3.2.1.1)
# test_name: α-Amylase inhibition assay
# condition_context: mean ± SD; samples in 30% (v/v) ethanol-PBS
pIC50: −log10 of the molar value.
endpoint_name: pIC50

• COc1cc(C(=O)O)ccc1O = < 1.00
• O=C(O)c1ccc(O)cc1 [Compound 7, 4-hydroxybenzoic acid] = < 1.00
• COc1cc(C(=O)O)cc(OC)c1O = < 1.00
